system: Plasmodium falciparum 3D7; construct: 3D7 parental line, asexual blood stage; assay: microbe, parasite or virus in culture; parameters: species or system P. falciparum 3D7 in human erythrocytes; Asexual blood stage growth inhibition dose response of parental 3D7 parasites, EC50; details: 3D7, Erythrocyte, read-out: Mefloquine (MQ) / EC50 [nM]
ENDPOINT: EC50 (nM)
Provide only the numeric value, understood in nM.

Problem: Give the value of EC50 reported for the following: O[C@@H](c1cc(C(F)(F)F)nc2c(C(F)(F)F)cccc12)[C@H]1CCCCN1 (racemic)
Result: 15.3

====

test system: Plasmodium falciparum PolD (Dd2-Polδ); construct: Dd2-Polδ parental hypermutator line, wild-type PfACS10, asexual blood stage; test: microbe, parasite or virus in culture; parameters: species or system P. falciparum Dd2-Polδ in human erythrocytes; Parasite survival dose response by flow cytometry with SYBR Green and MitoTracker Deep Red, EC50; details: DD2, Erythrocyte, 72 h, read-out: MMV665924 / EC50 [nM] (a) / EC50 [nM] (c)
ENDPOINT: EC50 (nM)
Expressed in nM, but write only the number.

Problem: Read off the recorded EC50 for COc1ccc(C(=O)C2CC2c2ccc(Cl)cc2)cc1 (stereo not shown) [MMV665924]
Result: 1360
